In this section we review reported kon values for a set of binders.
- test-system: T1, human PD-L1 ECD-His (human, UniProt Q9NZQ7 19-238)
- T1 construct: extracellular domain; Analyte in all SPR and BLI runs; also called hPD-L1_ECD-His; hPD-L1 ECD-His; not shown: His tag
- T1 sequence (Q9NZQ7 19-238): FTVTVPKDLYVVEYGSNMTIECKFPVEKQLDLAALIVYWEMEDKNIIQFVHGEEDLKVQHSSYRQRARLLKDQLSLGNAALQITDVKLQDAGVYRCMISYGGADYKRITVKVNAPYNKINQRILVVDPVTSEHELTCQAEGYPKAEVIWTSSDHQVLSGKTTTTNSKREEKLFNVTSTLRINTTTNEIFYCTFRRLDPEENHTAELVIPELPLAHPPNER
- assay-notes: BLI Octet RED96, antibody on AHC anti-human-Fc sensor, hPD-L1-His analyte, 1:1 fit
- Procedure: Briefly, black 96-well plate was prepared with columns containing 200 μL/well of reagents required for determination of affinity. […] Association was then measured by incubating the sensors for 3 minutes in wells containing hPD-L1-His followed by transferring to wells containing 1×Kinetics Buffer for 10 minutes to measure dissociation. […] All data were analyzed with Octet Data Analysis Software v.9.0 and representative of two independent experiments performed in duplicate. […]
All answers are understood in M⁻¹ s⁻¹, so give the number only.

Some entries whose results are on file:
binder | kon, M⁻¹ s⁻¹
PL3#7-43 mtIgG1 (antibody, V domains shown, Antibody was biotinylated (NHS-PEG4-biotin, sites not specified) for the Octet assay of Table 11., N297A mutant human IgG1; also called PL3#7-43 parental mtIgG1) VH: QVQLVQSGAEVKKPGSSVKVSCKASGGTFSSYPISWVRQAPGQGLEWMGRIIPILGIANYAQKFQGRVTITADKSTSTAYMELSSLRSEDTAVYYCARSRPGYAFGAFDIWGQGTLVTVSS VL: QSVVTQPPPVSGAPGQRVTISCTGSSSNVGAGYDVHWYQQLPGTAPKLLIYGNSNRSSGVPDRFSGSKSGTSASLAITGLQAEDEADYYCQTYDSSGSARVVFGGGTKLTVLG | 628000
PL3#7-19 deglyco1 mtIgG1 (antibody, V domains shown, N297A mutant human IgG1; also called PL3#7-19 deglycol) VH: QVQLVQSGAEVKKPGSSVKVSCKASGGTFSSYPISWVRQAPGQGLEWMGRIIPILGIANYAQKFQGRVTITADKSTSTAYMELSSLRSEDTAVYYCARSRDGYAFGAFDVWGQGTLVTVSS VL: QSVVTQPPPVSGAPGQRVTISCTGSSSNIGGGYDVHWYQQLPGTAPKLLIYGNSNRPSGVPDRFSGSKSGTSASLAITGLQAEDEADYYCQTYDSSLSATVVFGGGTKLTVLG | 384000
PL3#7-43 deglyco1 mtIgG1 (antibody, V domains shown, N297A mutant human IgG1; also called PL3#7-43 deglycol) VH: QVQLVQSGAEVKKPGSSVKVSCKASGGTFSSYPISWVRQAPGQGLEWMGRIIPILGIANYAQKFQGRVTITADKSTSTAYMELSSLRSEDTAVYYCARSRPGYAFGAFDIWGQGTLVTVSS VL: QSVVTQPPPVSGAPGQRVTISCTGSSSNVGAGYDVHWYQQLPGTAPKLLIYGNSNRPSGVPDRFSGSKSGTSASLAITGLQAEDEADYYCQTYDSSGSARVVFGGGTKLTVLG | 612000

Next up:
Data request: Specify measured kon for PL3#7-19 mtIgG1 (antibody, V domains shown, Antibody was biotinylated (NHS-PEG4-biotin, sites not specified) for the Octet assay of Table 11., N297A mutant human IgG1; also called PL3#7-19 parental mtIgG1) VH: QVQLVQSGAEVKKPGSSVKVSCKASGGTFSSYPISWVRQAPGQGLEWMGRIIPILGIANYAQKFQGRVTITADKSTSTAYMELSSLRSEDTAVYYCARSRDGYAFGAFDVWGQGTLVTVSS VL: QSVVTQPPPVSGAPGQRVTISCTGSSSNIGGGYDVHWYQQLPGTAPKLLIYGNSTRPSGVPDRFSGSKSGTSASLAITGLQAEDEADYYCQTYDSSLSATVVFGGGTKLTVLG .
Data returned: 328000
